B1: Poly(rC)-binding protein 1, residues 278 to 350; numbered along this chain, Q15365 (parent)
chain: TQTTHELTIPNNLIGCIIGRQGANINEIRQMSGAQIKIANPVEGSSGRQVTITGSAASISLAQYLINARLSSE

variants of: B1; test: abundance fitness (aPCA) (normalised: wild type 0, dead -1); higher = more abundant; growth selection in yeast, the domain comes from the species named; settings: Homo sapiens
Below is a list of entries, each paired with its recorded abundance fitness value.
Form: value (number only, do not type unit).

Some solved cases for reference:
> print(dat)
   mutation.code  reported.value
1           G22N           0.089
2           I14Q           -0.73
3           Y64K           0.233
4            T1E           0.106
5           G15N           0.016
6           E43L          -0.039

Please list abundance fitness recorded for the variant N26L -0.291

Please list abundance fitness recorded for the variant T51D -0.542

Please list abundance fitness recorded for the variant T4S 0.008
